Answer each item with its documented % Activity (FLIPR).
# target entity: human NMUR2 (human, UniProt Q9GZQ4 1-415)
# Sequence (Q9GZQ4 whole entry): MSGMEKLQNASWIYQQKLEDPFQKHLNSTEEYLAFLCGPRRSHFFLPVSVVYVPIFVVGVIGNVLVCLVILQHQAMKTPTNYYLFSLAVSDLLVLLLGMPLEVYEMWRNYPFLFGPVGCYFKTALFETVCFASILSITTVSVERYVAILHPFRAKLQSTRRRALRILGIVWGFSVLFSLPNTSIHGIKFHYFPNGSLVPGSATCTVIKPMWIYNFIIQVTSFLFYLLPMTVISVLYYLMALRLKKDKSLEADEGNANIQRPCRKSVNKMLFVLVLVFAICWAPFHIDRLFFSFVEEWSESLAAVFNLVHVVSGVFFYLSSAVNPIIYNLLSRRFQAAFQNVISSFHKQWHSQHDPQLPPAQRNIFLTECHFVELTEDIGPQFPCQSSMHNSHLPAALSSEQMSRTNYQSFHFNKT
# measurement description: cell-based or functional assay
No end group written: not given here. *: point of attachment. (PEG)2 40 kDa = branched PEG of 40 kDa linked via the Cys side-chain thiol (code C2 = Cys(PEG)2 40 kDa); Succinimide(1-Et,3-yl) = CCN1C(=O)CC(*)C1=O; Palmitoyl = CCCCCCCCCCCCCCCC(=O)*

Illustrative cases are given below, each with its answer.
| binder | % Activity (FLIPR) |
| --- | --- |
| Ac-C(Succinimide(1-Et,3-yl))ASQSRGYFLFRPRN-NH2 (SMILES CCN1C(=O)CC(SC[C@H](NC(C)=O)C(=O)N[C@@H](C)C(=O)N[C@@H](CO)C(=O)N[C@@H](CCC(N)=O)C(=O)N[C@@H](CO)C(=O)N[C@@H](CCCNC(=N)N)C(=O)NCC(=O)N[C@@H](Cc2ccc(O)cc2)C(=O)N[C@@H](Cc2ccccc2)C(=O)N[C@@H](CC(C)C)C(=O)N[C@@H](Cc2ccccc2)C(=O)N[C@@H](CCCNC(=N)N)C(=O)N2CCC[C@H]2C(=O)N[C@@H](CCCNC(=N)N)C(=O)N[C@@H](CC(N)=O)C(N)=O)C1=O) [NMU17] | 99.8% |
| Ac-C((PEG)2 40 kDa)ASQSRGYFLFRPRN-NH2 [NMU18] | 101% |

Batch of 4 binders: report % Activity (FLIPR) for each.
1. Ac-C((PEG)2 40 kDa)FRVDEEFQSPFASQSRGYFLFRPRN-NH2 [NMU9]
2. Palmitoyl-C(Succinimide(1-Et,3-yl))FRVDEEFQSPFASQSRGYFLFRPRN-NH2 [NMU24]
3. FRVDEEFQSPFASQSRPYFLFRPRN-NH2 [NMU4]
4. Ac-C((PEG)2 40 kDa)FQSPFASQSRGYFLFRPRN-NH2 [NMU20]

## Result
94.3%
63.9%
100%
100%
